Molecular target: Bcl-2 protein (histag-Bcl-2, UniProtKB P10415) (Homo sapiens (Human), UniProt P10415)
Sequence (P10415 whole entry): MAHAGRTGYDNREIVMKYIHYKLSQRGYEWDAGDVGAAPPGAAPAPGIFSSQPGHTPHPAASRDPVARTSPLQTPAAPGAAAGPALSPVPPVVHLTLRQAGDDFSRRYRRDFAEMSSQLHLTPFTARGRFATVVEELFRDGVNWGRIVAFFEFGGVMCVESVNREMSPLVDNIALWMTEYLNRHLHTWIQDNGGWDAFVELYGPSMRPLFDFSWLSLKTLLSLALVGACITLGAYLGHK
Assay: Inhibition of Bcl-2 by the fluorescence polarisation technique
Assay type: binding
Settings: fluorescence polarisation test; incubation for 2 hours; read-out: IC50 (nM) Bcl-2 FP
Source text: For partial inhibitors, the percentage fluorescence polarisation inhibition for a given concentration of the test compound is indicated.
Counter-ions that a name gives are not always drawn.
readout.label: IC50 (nM)

compound=C[C@@H]1Cc2ccccc2CN1C(=O)c1cc2c(cc1-c1cc(C(=O)N(C)c3ccc(O)cc3)c3n1CCCC3)CN(C(=O)OC(C)(C)C)C2 experimental_value=108
compound=C[C@@H]1Cc2ccccc2CN1C(=O)c1cc2c(cc1-c1cc(C(=O)N(C)c3ccc(O)cc3)c3n1CCCC3)CN(C(=O)OCc1ccccc1)C2 experimental_value=20
compound=Cc1cccc(OC(=O)N2CCc3cc(-c4cc(C(=O)N(C)c5ccc(O)cc5)c5n4CCCC5)c(C(=O)N4Cc5ccccc5C[C@H]4CN4CCOCC4)cc3C2)c1 experimental_value=5.5
compound="Cc1ccc(OC(=O)N2CCc3cc(-c4cc(C(=O)N(C)c5ccc(O)cc5)c5n4CCCC5)c(C(=O)N4Cc5ccccc5C[C@H]4CN4CCOCC4)cc3C2)cc1 [Example 98, hydrochloride]" experimental_value=3.8
compound=Cc1c(C(=O)N(C)c2ccc(O)cc2)cc(-c2cc3c(cc2C(=O)N2Cc4ccccc4C[C@H]2C)CN(C(=O)Oc2cccc(C(=O)O)c2)CC3)n1C experimental_value=2.2
compound=C[C@@H]1Cc2ccccc2CN1C(=O)c1cc2c(cc1-c1cc(C(=O)N(C)c3ccc(O)cc3)c3n1CCCC3)CN(C(=O)COc1ccccc1Cl)C2 experimental_value=5.5
compound="C[C@@H]1Cc2ccccc2CN1C(=O)c1cc2c(cc1-c1cc(C(=O)N(C)c3ccc(O)cc3)c3n1CCCC3)CN(C(=O)N1CCC(c3ccccc3)C1)C2 (stereo partly shown)" experimental_value=16
compound=CCCCN(CCCC)C(=O)c1cc(-c2cc3c(cc2C(=O)N2Cc4ccccc4C[C@H]2CN2CCOCC2)CN(C(=O)Cc2ccccc2)CC3)n(C)c1C experimental_value=18
compound=CN(C(=O)c1cc(-c2cc3c(cc2C(=O)N2Cc4ccccc4C[C@H]2CN2CCOCC2)CN(S(=O)(=O)c2ccc4ccccc4c2)CC3)n2c1CCCC2)c1ccc(O)cc1 experimental_value=43
compound=Cc1c(C(=O)N(C)c2ccc(O)cc2)cc(-c2cc3c(cc2C(=O)N2Cc4ccccc4C[C@H]2C)CN(C(=O)Oc2cccc(OCCN(C)C)c2)CC3)n1C experimental_value=2.9
compound=Cc1c(C(=O)N(C)c2ccccc2)cc(-c2cc3c(cc2C(=O)N2Cc4ccccc4C[C@H]2C)CN(C(=O)Oc2ccc(NCCN(C)C)cc2)CC3)n1C experimental_value=3.2
compound=C[C@@H]1Cc2ccccc2CN1C(=O)c1cc2c(cc1-c1cc(C(=O)N(C)c3ccc(O)cc3)c3n1CCCC3)CN(C(=O)CCc1ccccc1)C2 experimental_value=19
compound=CN(C(=O)c1cc(-c2cc3c(cc2C(=O)N2Cc4ccccc4C[C@H]2CN2CCOCC2)CN(C(=O)COc2ccccc2)C3)n2c1CCCC2)c1ccc(O)cc1 experimental_value=6.8
compound="CCS(=O)(=O)N1Cc2cc(C(=O)N3Cc4ccccc4C[C@H]3CN3CCOCC3)c(-c3cc(C(=O)N(C)c4ccc(O)cc4)c4n3CCCC4)cc2C1 [Example 18, hydrochloride]" experimental_value=38
compound=Cc1c(C(=O)N(C)c2ccc(O)cc2)cc(-c2cc3c(cc2C(=O)N2Cc4ccccc4C[C@H]2CCCN2CCOCC2)CN(C(=O)Oc2ccccc2)CC3)n1C experimental_value=2.7
compound=COc1ccccc1OC(=O)N1CCc2cc(-c3cc(C(=O)N(C)c4ccc(O)cc4)c4n3CCCC4)c(C(=O)N3Cc4ccccc4C[C@H]3CN3CCOCC3)cc2C1 experimental_value=3.5
compound=C[C@@H]1Cc2ccccc2CN1C(=O)c1cc2c(cc1-c1cc(C(=O)N(C)c3ccc(O)cc3)c3n1CCCC3)CCN(C(=O)Cc1cccc(NCCN(C)C)c1)C2 experimental_value=5.3
compound=C[C@@H]1Cc2ccccc2CN1C(=O)c1cc2c(cc1-c1cc(C(=O)N(C)c3ccc(O)cc3)c3n1CCCC3)CN(C(=O)CNc1ccccc1)C2 experimental_value=5.1
compound=Cc1c(C(=O)N(C)c2ccc(O)cc2)cc(-c2cc3c(cc2C(=O)N2Cc4ccccc4C[C@H]2C)CN(C(=O)Oc2ccc(OCCN(C)C)cc2)CC3)n1C experimental_value=1.8
compound=C[C@@H]1Cc2ccccc2CN1C(=O)c1cc2c(cc1-c1cc(C(=O)N(C)c3ccc(O)cc3)c3ccccn13)CN(C(=O)COc1ccccc1)C2 experimental_value=6.5
compound="Cc1c(C(=O)N(C)c2ccc(O)cc2)cc(-c2cc3c(cc2C(=O)N2Cc4ccccc4C[C@H]2C)CN(C(=O)OC2CCS(=O)(=O)C2)C3)n1C (stereo partly shown)" experimental_value=21
compound=CNC(=O)N1Cc2cc(C(=O)N3Cc4ccccc4C[C@H]3C)c(-c3cc(C(=O)N(C)c4ccc(O)cc4)c4n3CCCC4)cc2C1 experimental_value=16
